Property: relative viability; scope: individual compounds
- Test system: NCI-H1915
- test-description: relative viability (nuclei count vs DMSO), 5 days (fraction); higher = more cells survive
- reported-conditions: first compound 0.4 µM
Please state the value as a number alone, without comment.

• O=C(O)c1ccc(-c2c[nH]c3ncc(-c4ccccc4)cc23)cc1C1CCCC1 + CC1(C)CCC(c2ccc(Cl)cc2)=C(CN2CCN(c3ccc(C(=O)NS(=O)(=O)c4ccc(N[C@H](CCN5CCOCC5)CSc5ccccc5)c(S(=O)(=O)C(F)(F)F)c4)cc3)CC2)C1 [Navitoclax] (partner 0.5 µM) = 0.609

Which relative viability is reported for this compound? O=C(O)c1ccc(-c2c[nH]c3ncc(-c4ccccc4)cc23)cc1C1CCCC1 + O=C(c1cc(Cc2n[nH]c(=O)c3ccccc23)ccc1F)N1CCN(C(=O)C2CC2)CC1 [Olaparib] (partner 8 µM) 0.226

###

- Tested on: NCI-H3122
- test-description: relative viability (nuclei count vs DMSO), 5 days (fraction); higher = more cells survive
- reported-conditions: first compound 0.005 µM
relative viability strictly under 0.4 means 1 (yes); at 0.4 or over means 0 (no).

• CC1(C)CCC(c2ccc(Cl)cc2)=C(CN2CCN(c3ccc(C(=O)NS(=O)(=O)c4ccc(N[C@H](CCN5CCOCC5)CSc5ccccc5)c(S(=O)(=O)C(F)(F)F)c4)cc3)CC2)C1 [Navitoclax] + C[C@]1(O)C[C@@H](c2nc(-c3ccc4ccc(-c5ccccc5)nc4c3)c3c(N)nccn32)C1 [Linsitinib] (partner 1 µM) = 0 (no)
• CC1(C)CCC(c2ccc(Cl)cc2)=C(CN2CCN(c3ccc(C(=O)NS(=O)(=O)c4ccc(N[C@H](CCN5CCOCC5)CSc5ccccc5)c(S(=O)(=O)C(F)(F)F)c4)cc3)CC2)C1 [Navitoclax] + C[C@@H](Oc1cc(-c2cnn(C3CCNCC3)c2)cnc1N)c1c(Cl)ccc(F)c1Cl [Crizotinib] (partner 1 µM) = 1 (yes)

Does CC1(C)CCC(c2ccc(Cl)cc2)=C(CN2CCN(c3ccc(C(=O)NS(=O)(=O)c4ccc(N[C@H](CCN5CCOCC5)CSc5ccccc5)c(S(=O)(=O)C(F)(F)F)c4)cc3)CC2)C1 [Navitoclax] + COc1cccc2cc(-c3nc([C@H]4CC[C@H](C(=O)O)CC4)n4ncnc(N)c34)[nH]c12 [OSI-027] (partner 0.5 µM) have relative viability strictly under 0.4? 0 (no)

Please do the same for CC1(C)CCC(c2ccc(Cl)cc2)=C(CN2CCN(c3ccc(C(=O)NS(=O)(=O)c4ccc(N[C@H](CCN5CCOCC5)CSc5ccccc5)c(S(=O)(=O)C(F)(F)F)c4)cc3)CC2)C1 [Navitoclax] + COc1cc2c(Oc3ccc(NC(=O)C4(C(=O)Nc5ccc(F)cc5)CC4)cc3F)ccnc2cc1OCCCN1CCOCC1 [Foretinib] (partner 0.25 µM) as well. 0 (no)

What would you report for CC1(C)CCC(c2ccc(Cl)cc2)=C(CN2CCN(c3ccc(C(=O)NS(=O)(=O)c4ccc(N[C@H](CCN5CCOCC5)CSc5ccccc5)c(S(=O)(=O)C(F)(F)F)c4)cc3)CC2)C1 [Navitoclax] + CC(=O)Nc1cccc(-n2c(=O)n(C3CC3)c(=O)c3c(Nc4ccc(I)cc4F)n(C)c(=O)c(C)c32)c1 [Trametinib] (partner 0.02 µM) ? 1 (yes)

Field entry: CC1(C)CCC(c2ccc(Cl)cc2)=C(CN2CCN(c3ccc(C(=O)NS(=O)(=O)c4ccc(N[C@H](CCN5CCOCC5)CSc5ccccc5)c(S(=O)(=O)C(F)(F)F)c4)cc3)CC2)C1 [Navitoclax] + CS(=O)(=O)CCNCc1ccc(-c2ccc3ncnc(Nc4ccc(OCc5cccc(F)c5)c(Cl)c4)c3c2)o1 [Lapatinib] (partner 2 µM) 0 (no)

###

- Test system: RERF-LC-KJ
- test-description: relative viability (nuclei count vs DMSO), 5 days (fraction); higher = more cells survive
- reported-conditions: first compound 0.03162 µM
measurement-type: relative viability
// return a plain number; no unit text

These solved cases illustrate the format of a correct answer.
- NC(=O)Nc1cc(-c2cccc(F)c2)sc1C(=O)N[C@H]1CCCNC1 [AZD7762] + Cc1cc(Nc2cc(N3CCN(C)CC3)nc(Sc3ccc(NC(=O)C4CC4)cc3)n2)n[nH]1 [Tozasertib] (partner 0.1 µM): 0.509
- NC(=O)Nc1cc(-c2cccc(F)c2)sc1C(=O)N[C@H]1CCCNC1 [AZD7762] + CS(=O)(=O)N1CCN(Cc2cc3nc(-c4cccc5[nH]ncc45)nc(N4CCOCC4)c3s2)CC1 [Pictilisib] (partner 1 µM): 0.616

Need relative viability of NC(=O)Nc1cc(-c2cccc(F)c2)sc1C(=O)N[C@H]1CCCNC1 [AZD7762] + CC(C)C[C@H](NC(=O)[C@H](Cc1ccccc1)NC(=O)c1cnccn1)B(O)O [Bortezomib] (partner 0.002 µM) , thanks. 1.11

Again, but for NC(=O)Nc1cc(-c2cccc(F)c2)sc1C(=O)N[C@H]1CCCNC1 [AZD7762] + C[C@@H](Oc1cc(-c2cnn(C3CCNCC3)c2)cnc1N)c1c(Cl)ccc(F)c1Cl [Crizotinib] (partner 1 µM) 0.894

###

- Test system: NCI-H2405
- test-description: relative viability (nuclei count vs DMSO), 5 days (fraction); higher = more cells survive
- reported-conditions: first compound 0.8 µM
# label = yes (1) if relative viability < 0.5 else no (0)

Record excerpt, results attached:
* C=C1C(=O)O[C@@H](CCCCCCCC)[C@@H]1C(=O)O [C-75] + Cc1nc(Nc2ncc(C(=O)Nc3c(C)cccc3Cl)s2)cc(N2CCN(CCO)CC2)n1 [Dasatinib] (partner 0.075 µM) | yes (1)
* C=C1C(=O)O[C@@H](CCCCCCCC)[C@@H]1C(=O)O [C-75] + O=C(c1cc(Cc2n[nH]c(=O)c3ccccc23)ccc1F)N1CCN(C(=O)C2CC2)CC1 [Olaparib] (partner 8 µM) | no (0)
* C=C1C(=O)O[C@@H](CCCCCCCC)[C@@H]1C(=O)O [C-75] + CS(=O)(=O)CCNCc1ccc(-c2ccc3ncnc(Nc4ccc(OCc5cccc(F)c5)c(Cl)c4)c3c2)o1 [Lapatinib] (partner 2 µM) | no (0)

hey, is relative viability for C=C1C(=O)O[C@@H](CCCCCCCC)[C@@H]1C(=O)O [C-75] + CCNC(=O)c1noc(-c2cc(C(C)C)c(O)cc2O)c1-c1ccc(CN2CCOCC2)cc1 [Luminespib] (partner 0.01 µM) lower than 0.5 or not? no (0)

###

- System: HARA
- test-description: relative viability (nuclei count vs DMSO), 5 days (fraction); higher = more cells survive
- reported-conditions: first compound 0.08 µM
measurement-type: relative viability
Would you mind answering with just the numeric figure?

In the examples that follow, each entry is paired with its recorded relative viability.
* Oc1nc(-c2ccc(C(F)(F)F)cc2)nc2c1CSCC2 [XAV939] + CC(C)C[C@H](NC(=O)[C@H](Cc1ccccc1)NC(=O)c1cnccn1)B(O)O [Bortezomib] (partner 0.002 µM) | 1.35
* C=C1C(=O)O[C@@H](CCCCCCCC)[C@@H]1C(=O)O [C-75] + C[C@]1(O)C[C@@H](c2nc(-c3ccc4ccc(-c5ccccc5)nc4c3)c3c(N)nccn32)C1 [Linsitinib] (partner 1 µM) | 0.861

Could you tell me which relative viability is on file for C=C1C(=O)O[C@@H](CCCCCCCC)[C@@H]1C(=O)O [C-75] + CC(=O)Nc1cccc(-n2c(=O)n(C3CC3)c(=O)c3c(Nc4ccc(I)cc4F)n(C)c(=O)c(C)c32)c1 [Trametinib] (partner 0.02 µM) ? 0.662

###

- System: ABC-1
- test-description: relative viability (nuclei count vs DMSO), 5 days (fraction); higher = more cells survive
- reported-conditions: first compound 0.01581 µM
measurement-type: relative viability
Field format: numeric only.

- CC1(C)CCC(c2ccc(Cl)cc2)=C(CN2CCN(c3ccc(C(=O)NS(=O)(=O)c4ccc(N[C@H](CCN5CCOCC5)CSc5ccccc5)c(S(=O)(=O)C(F)(F)F)c4)cc3)CC2)C1 [Navitoclax] + Cc1nc(NC(=O)N2CCC[C@H]2C(N)=O)sc1-c1ccnc(C(C)(C)C(F)(F)F)c1 [Alpelisib] (partner 2 µM): 1.39
- CC1(C)CCC(c2ccc(Cl)cc2)=C(CN2CCN(c3ccc(C(=O)NS(=O)(=O)c4ccc(N[C@H](CCN5CCOCC5)CSc5ccccc5)c(S(=O)(=O)C(F)(F)F)c4)cc3)CC2)C1 [Navitoclax] + CC(=O)c1c(C)c2cnc(Nc3ccc(N4CCNCC4)cn3)nc2n(C2CCCC2)c1=O [Palbociclib] (partner 0.5 µM): 0.845
- CC1(C)CCC(c2ccc(Cl)cc2)=C(CN2CCN(c3ccc(C(=O)NS(=O)(=O)c4ccc(N[C@H](CCN5CCOCC5)CSc5ccccc5)c(S(=O)(=O)C(F)(F)F)c4)cc3)CC2)C1 [Navitoclax] + CC(C)C[C@H](NC(=O)[C@H](Cc1ccccc1)NC(=O)c1cnccn1)B(O)O [Bortezomib] (partner 0.002 µM): 0.286

Record lookup: for ABC-1, what relative viability belongs to CC1(C)CCC(c2ccc(Cl)cc2)=C(CN2CCN(c3ccc(C(=O)NS(=O)(=O)c4ccc(N[C@H](CCN5CCOCC5)CSc5ccccc5)c(S(=O)(=O)C(F)(F)F)c4)cc3)CC2)C1 [Navitoclax] + COc1cccc2cc(-c3nc([C@H]4CC[C@H](C(=O)O)CC4)n4ncnc(N)c34)[nH]c12 [OSI-027] (partner 0.5 µM) ? 0.637

Entry to check: CC1(C)CCC(c2ccc(Cl)cc2)=C(CN2CCN(c3ccc(C(=O)NS(=O)(=O)c4ccc(N[C@H](CCN5CCOCC5)CSc5ccccc5)c(S(=O)(=O)C(F)(F)F)c4)cc3)CC2)C1 [Navitoclax] + Nc1ncn([C@H]2C[C@H](O)[C@@H](CO)O2)c(=O)n1 [Decitabine] (partner 2 µM) 1.21

And what about the molecule CC1(C)CCC(c2ccc(Cl)cc2)=C(CN2CCN(c3ccc(C(=O)NS(=O)(=O)c4ccc(N[C@H](CCN5CCOCC5)CSc5ccccc5)c(S(=O)(=O)C(F)(F)F)c4)cc3)CC2)C1 [Navitoclax] + Cc1cc(Nc2cc(N3CCN(C)CC3)nc(Sc3ccc(NC(=O)C4CC4)cc3)n2)n[nH]1 [Tozasertib] (partner 0.1 µM) ? 0.19

Source listed as the supplement of paper PMC10307832.
